Test system: KB-3-1
method summary: Cytotoxic Profiling of Annotated Libraries Using Quantitative High-Throughput Screening (AID 1296008); note: % is set by controls: 0 for no effect and ±100 for the full control effect; nearly all actives have a fitted effect of over 60% in size
experimental context: Five cell lines viability, CellTiter-Glo ATP luminescence, 48-72 h; active compounds read low
Inconclusive results are not listed.

| molecule | max response (%) |
| --- | --- |
| CC(C)(Oc1ccc(-c2nc3cc(Cl)ccc3s2)cc1)C(=O)O | 5.1 |
| COc1ccc(N2CCN(CCCNC(=O)Cn3c(=O)c4cccn4c4c(C)ccnc43)CC2)cc1 | 6.93 |
| Cc1cn2cc(CC(=O)N3CCC4(CC3)CN(Cc3ccc(-n5nccn5)cc3Cl)C4)nc2s1 | 0.0455 |
| O=C(OCC1=C[C@@H](O)[C@@H]2C=CO[C@@H](O[C@@H]3O[C@H](CO)[C@@H](O)[C@H](O)[C@H]3O)[C@H]12)c1ccc(O)cc1 | 1.69 |
| CCCC(=O)Nc1cccc(NC(=O)c2ccccc2Br)c1 | 8.7 |
| COc1cc(C(C)=O)ccc1O[C@@H]1O[C@H](CO)[C@@H](O)[C@H](O)[C@H]1O | 6.72 |
| CC1OC(OC2C(OC(=O)[C@]34CCC(C)(C)C[C@H]3C3=CCC5[C@@]6(C)CC[C@H](OC7OC(C(=O)O)C(O)C(O)C7O)C(C)(C)C6CC[C@@]5(C)[C@]3(C)CC4O)OC(CO)C2O)C(O)C(O)C1OC1OCC(O)C(O)C1O (stereo partly drawn) | 8.03 |
| CNc1nc(Nc2cn(C(C)(C)C#N)nc2C)ncc1C(F)(F)F | 6.02 |

* * *

target system: Calcium and integrin-binding protein 1 (Homo sapiens)
method summary: Primary qHTS for Identification of Calcium Integrin Binding Protein 1 (CIB1) Competitor (AID 1508620);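 note: GST tagged CIB1 binding a fluorescein labelled alphaIIb integrin peptide tracer; top concentration of the series differs between compounds; % is set by controls: 0 for no effect and ±100 for the full control effect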
experimental context: CIB1-GST / FITC-alphaIIb peptide fluorescence polarization; series mostly up to 57.7 µM
Records with an inconclusive call do not appear. The source made the active and inactive calls. Calls follow the shape of the dose curve; as a rule, active = well fitted inhibition curve with a large enough effect; inconclusive = small, poorly fitted or top-dose-only effect; inactive = flat fitted curve, though single readings scatter. Where a SMILES comes first, the peptide text is derived from it. The star is where a group is joined. AMC = Cc1cc(=O)oc2cc(N*)ccc12; Cbz = O=C(OCc1ccccc1)*

| compound | activity change, negative = inhibition |
| --- | --- |
| COc1ccccc1CN[C@H]1CCCN[C@H]1c1ccccc1 | inactive |
| CC(C)(O)/C=C/C(=O)[C@](C)(O)[C@H]1[C@H](O)C[C@@]2(C)[C@@H]3CC=C4[C@@H](C=C(O[C@@H]5O[C@H](CO)[C@@H](O)[C@H](O)[C@H]5O)C(=O)C4(C)C)[C@]3(C)C(=O)C[C@]12C | inactive |
| C=C1[C@H]2CCC3[C@]4(C)CCC[C@@](C)(C(=O)O)C4CC[C@]3(C2)[C@H]1OC(C)=O (stereo partly specified) | inactive |
| O=C(O)c1ccnc(-c2cc(C(=O)NCCc3ccccc3)ccn2)c1 | inactive |
| C=C1C[C@H](O)[C@@H](O)[C@@]2(C)C1[C@@H](O)[C@H]1OC(=O)C3[C@@H](C)[C@@H](O)[C@H](O)C2[C@]31C (stereo partly specified) | inactive |
| COC(=O)Cn1nc(-c2cccc(OC)c2)c2ccccc21 | inactive |
| CC1CCC23COC(=O)C2=CC(O)CC3C1(C)CCc1ccoc1 (stereo unspecified) | inactive |
| CC1(C)OC(=O)CC(O)C2(C)C1CC(=O)C1(C)C2C(O)CC2(C)C(c3ccoc3)OC(=O)C3OC321 (stereo unspecified) | inactive |
| COc1ccc(O[C@@H]2O[C@H](CO)[C@@H](O)[C@H](O)[C@H]2O)cc1OC | inactive |
| CC1(C)CC[C@]2(C(=O)O[C@@H]3O[C@H](CO)[C@@H](O)[C@H](O)[C@H]3O)CC[C@]3(C)C(=CCC4[C@@]5(C)CC[C@H](O[C@@H]6O[C@H](C(=O)O)[C@@H](O)[C@H](O)[C@H]6OC6OC(CO)C(O)C(O)C6O)C(C)(C)C5CC[C@]43C)[C@@H]2C1 (stereo partly specified) | inactive |
| COc1cc(CCCO)ccc1O[C@@H]1O[C@H](CO)[C@@H](O)[C@H](O)[C@H]1O | inactive |
| O=C(O)c1cc(O[C@@H]2O[C@H](CO)[C@@H](O)[C@H](O)[C@H]2O)ccc1O | inactive |
| Cc1cc(=O)oc2cc(NC(=O)[C@H](CCC(=O)O)NC(=O)[C@H](CC(C)C)NC(=O)[C@H](CC(C)C)NC(=O)OCc3ccccc3)ccc12 (Cbz-Leu-Leu-Glu-{AMC}) | inactive |
| Cc1occc1C(=O)n1ccnc1 | inactive |
| C[C@@H]1[C@H]2[C@H](O[C@@H]3O[C@H](CO)[C@@H](O)[C@H](O)[C@H]3O)OC=C(C(=O)O)[C@H]2C[C@@H]1OC(=O)/C=C/c1ccc(O)cc1 | inactive |
| COc1cc([C@@H](O[C@@H]2O[C@H](CO)[C@@H](O)[C@H](O)[C@H]2O)[C@@H]2CO[C@H](c3ccc(O)c(OC)c3)[C@H]2CO)ccc1O | inactive |
| C=CCc1cc(OC)c(OC(C)C(O)c2ccc(O)c(OC)c2)c(OC)c1 (stereo unspecified) | inactive |
| CC1=CCC2C(C)(C)CCCC2(C)C1CC12OC1C(O)C(CO)=CC2O (stereo unspecified) | inactive |
| C/C(=C\C(=O)C[C@@]12C(=O)O[C@]3(C)CC[C@H]1C[C@H]23)C(N)=O | inactive |
| C=CC(C)(CCC=C(C)C)O[C@@H]1O[C@H](CO)[C@@H](O)[C@H](O)[C@H]1O (stereo partly specified) | inactive |
| C=C(C(=O)O)C1CC(O)C2(C)CCCC(C)(O)C2C1 (stereo unspecified) | inactive |
| CC1OC(O[C@H]2CC[C@@]3(C)C(CC[C@]4(C)C3CC=C3C5CC(C)(C)CC[C@]5(C(=O)OC5OC(CO)C(OC6OCC(OC7OCC(O)C(O)C7O)C(O)C6O)C(O)C5O)CC[C@]34C)C2(C)C)C(O)C(O)C1OC1OC(CO)C(O)C(OC2OC(CO)C(O)C(O)C2O)C1O (stereo partly specified) | -8.26% [at 12.4 µM] (inactive) |
| NC(=O)c1ccc(F)c2c1C[C@@H](N(C1CCC1)C1CCC1)CO2 | inactive |
| COc1ccc(NC(=O)c2ccc(-c3ccc(C(N)=O)cc3C)cc2)cc1N1CCN(C)CC1 | inactive |
| C=C1C2CCC3C(CCC4[C@@]3(C)CCC[C@@]4(C)C(=O)O)(C2)[C@@H]1OC(=O)/C(C)=C\C (stereo partly specified) | inactive |
| Cc1nnc(-c2sc(NC(=O)[C@H](C(C)C)n3c(=O)[nH]c4ccccc4c3=O)nc2C)o1 | inactive |
| COC1OC(OC)C(O)(CCC2(C)C(C)CCC3(C)C2CC(O)C(O)C32CO2)C1O (stereo unspecified) | inactive |
| COC(=O)C1=COC(OC2OC(CO)C(O)C(O)C2O)C2C(C)C(OC(=O)/C=C/c3ccc(O)cc3)C(O)C12 (stereo unspecified) | inactive |
| COC(=O)C1=CO[C@@H](O[C@@H]2O[C@H](CO)[C@@H](O)[C@H](O)[C@H]2O)[C@@H]2C(CO)=CC[C@H]12 | inactive |
| CC/C=C\[C@H](O)[C@H](O)C1=C(C)C(=O)[C@]2(O1)C(=O)N[C@@](O)(C(=O)c1ccccc1)[C@@H]2O | inactive |
| O=C(OC[C@H]1O[C@@H](Oc2ccccc2COC(=O)C2(O)C=CCCC2O)[C@H](O)[C@@H](O)[C@@H]1O)c1ccccc1 (stereo partly specified) | inactive |
